Recorded ELISA HSA (RSU) values for a group of binders are listed next.
molecular target: human serum albumin (human) (UniProt P02768); assay: ELISA, lysate on plate-bound antigen
Sequence (P02768 25-609 limits assumed): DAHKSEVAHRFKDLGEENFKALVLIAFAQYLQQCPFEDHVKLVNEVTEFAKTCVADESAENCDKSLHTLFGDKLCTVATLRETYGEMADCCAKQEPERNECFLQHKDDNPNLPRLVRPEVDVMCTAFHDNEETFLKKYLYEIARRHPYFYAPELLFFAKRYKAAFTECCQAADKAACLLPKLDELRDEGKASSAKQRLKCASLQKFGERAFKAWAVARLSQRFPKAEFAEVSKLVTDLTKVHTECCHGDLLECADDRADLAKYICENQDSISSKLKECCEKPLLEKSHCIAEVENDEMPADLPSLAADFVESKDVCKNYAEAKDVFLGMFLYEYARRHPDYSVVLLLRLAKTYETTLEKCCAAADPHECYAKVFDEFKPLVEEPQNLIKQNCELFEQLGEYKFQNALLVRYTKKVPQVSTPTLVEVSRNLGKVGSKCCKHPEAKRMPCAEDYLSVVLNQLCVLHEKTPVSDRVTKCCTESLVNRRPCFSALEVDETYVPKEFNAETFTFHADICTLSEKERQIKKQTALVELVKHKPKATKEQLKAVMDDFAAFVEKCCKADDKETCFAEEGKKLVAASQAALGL
endpoint.name: ELISA HSA (RSU)

INSERT INTO assay_data (binder, readout_number) VALUES
  ('ISOP121ER5P1E7 (designed binder, not shown: small tags and cut ends, FN3 domain; E. coli lysate in the ELISA) LPAPKNLVVSRVTEDSARLSWTAPDAAFDSFTIGYTETPPRGEAIVLTVPGSERSYDLTGLKPGTKYYVSILGVKGGLGSWPLSAIFTT', 560),
  ('ISOP121GR5P1D7 (designed binder, not shown: small tags and cut ends, FN3 domain; E. coli lysate in the ELISA) LPAPKNLVVSRVTEDSARLSWTAPDAAFDSFKIWYQERSIVGEAIFLLVPGSERSYDLTGLKPGTEYIVQIFGVKGGPYSNPLWAPFTT', 720),
  ('ISOP194BR9P1D1 (designed binder, not shown: small tags and cut ends, FN3 domain; E. coli lysate in the ELISA) LPAPKNLVVSRVTEDSARLSWEHSLLNDQWFDSFLIQYQESEKVGEAIVLTVPGSERSYDLTGLKPGTEYTVSIYGVYQRGRALWYSNPLSAIFTT', 1280),
  ('ISOP121HR5P1H2 (designed binder, not shown: small tags and cut ends, FN3 domain; E. coli lysate in the ELISA) LPAPKNLVVSRVTEDSARLSWTAPDAAFDSFDIYYLEYDYSGEAIVLTVPGSERSYDLTGLKPGTEYDVLIIGVKGGSLSTPLSAIFTT', 560),
  ('ISOP194AR9P1H9 (designed binder, not shown: small tags and cut ends, FN3 domain; E. coli lysate in the ELISA) LPAPKNLVVSRVTEDSARLSWEWLEHFDSFQIQYQESEKVGEAIVLTVPGSERSYDLTGLKPGTEYTVSIYGVYQRKVEFHSNPLSAIFTT', 11400),
  ('ISOP194AR9P1H3 (designed binder, not shown: small tags and cut ends, FN3 domain; E. coli lysate in the ELISA) LPAPKNLVVSRVTEDSARLSWNASWISHNFFDSFLIQYQESEKVGEAIVLTVPGSERSYDLTGLKPGTEYTVSIYGVYERKTAFYSNPLSAIFTT', 4880),
  ('ISOP121AR5P1F3 (designed binder, not shown: small tags and cut ends, FN3 domain; E. coli lysate in the ELISA) LPAPKNLVVSRVTEDSARLSWPFNNYSEHFDSFLIQYQESEKVGEAIVLTVPGSERSYDLTGLKPGTEYTVSIYGVYERKTAFYSNPLSAIFTT', 960),
  ('ISOP194BR9P1C8 (designed binder, not shown: small tags and cut ends, FN3 domain; E. coli lysate in the ELISA) LPAPKNLVVSRVTEDSARLSWYFAGELWFDSFLIQYQESEKVGEAIVLTVPGSERSYDLTGLKPGTEYTVSIYGVYQRGYHNWFSNPLSAIFTT', 1280),
  ('ISOP194GR9P1C11 (designed binder, not shown: small tags and cut ends, FN3 domain; E. coli lysate in the ELISA) LPAPKNLVVSRVTEDSARLSWTAPDAAFDSFWIFYNERWQNGEAIRLTVPGSERSYDLTGLKPGTEYWVLIGGVKGGLKSSPLWAWFTT', 1440);

Numbers sourced from patent US20180162928A1.
